Can you tell me DF norm AVERAGE OR13a for the items I'm about to list?
- assayed.target: Drosophila OR13a (Drosophila melanogaster)
- Construct: expressed in transfected cells
- Sequence (Q9VXL0 whole entry, one chain of several): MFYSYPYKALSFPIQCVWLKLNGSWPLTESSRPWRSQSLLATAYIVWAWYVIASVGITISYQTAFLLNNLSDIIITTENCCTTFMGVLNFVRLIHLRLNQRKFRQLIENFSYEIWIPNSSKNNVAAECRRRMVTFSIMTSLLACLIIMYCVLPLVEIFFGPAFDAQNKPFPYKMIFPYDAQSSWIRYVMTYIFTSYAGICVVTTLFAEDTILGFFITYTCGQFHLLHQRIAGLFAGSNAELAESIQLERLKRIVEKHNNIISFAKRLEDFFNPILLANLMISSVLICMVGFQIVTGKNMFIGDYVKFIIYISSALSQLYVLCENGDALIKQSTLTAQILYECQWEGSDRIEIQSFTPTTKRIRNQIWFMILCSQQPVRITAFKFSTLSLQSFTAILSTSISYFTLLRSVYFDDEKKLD
- experimental.details: Calcium ion fluorescence (GCaMP6) assay, OR13a stable HEK293 cell line
- Assay type: cell-based
- assay.context: concentration 100; normalized fluorescence change, values below 0.05 threshold given as 0
Answers are plain numbers.

Solved cases below.
(Q) Short answer please: DF norm AVERAGE OR13a, Drosophila OR13a (Drosophila melanogaster), entry `CCCCCCCO`
(A) 0.219

(Q) Same read-out for C=CC(O)CCCCC (stereo not shown) ?
(A) 0.3797

(Q) Same read-out for `Cc1cccc(O)c1` ?
(A) 0

(Q) Same read-out for CCCCCCCCC(CO)CCCCCC (stereo not shown) ?
(A) 0

(Q) Same read-out for CCCC(O)CC (stereo not shown) ?
(A) 0

Report DF norm AVERAGE OR13a for each item below.
1. C=C1CC/C=C(\C)CC[C@@H]2[C@@H]1CC2(C)C [(-)-trans-caryophyllene]
2. CCCCC(C)=O
3. CCCCCC(=O)CC
4. C=C1CC[C@H]2O[C@]2(C)CC[C@@H]2[C@@H]1CC2(C)C [(-)-caryophyllene oxide]
5. CCCCCC(O)CC (stereo not shown)
6. CCCCCC(C)O (stereo not shown)

(A)
1. 0.105
2. 0
3. 0
4. 0
5. 0.1167
6. 0.07697

* * *

Can you tell me Average response for the items I'm about to list?
- assayed.target: Drosophila OR71a (Drosophila melanogaster)
- Construct: expressed in transfected cells
- Sequence (Q9VUK5 1-378): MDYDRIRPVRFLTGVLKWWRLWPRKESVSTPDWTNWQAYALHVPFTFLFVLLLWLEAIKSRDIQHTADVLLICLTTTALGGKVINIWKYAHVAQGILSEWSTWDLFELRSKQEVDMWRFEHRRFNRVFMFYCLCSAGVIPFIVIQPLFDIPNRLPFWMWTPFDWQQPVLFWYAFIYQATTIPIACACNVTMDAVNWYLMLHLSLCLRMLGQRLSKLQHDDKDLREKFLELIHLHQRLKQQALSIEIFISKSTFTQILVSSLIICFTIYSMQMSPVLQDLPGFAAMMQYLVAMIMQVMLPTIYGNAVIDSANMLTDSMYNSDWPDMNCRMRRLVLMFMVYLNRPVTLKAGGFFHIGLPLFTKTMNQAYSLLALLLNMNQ
- Sequence (Q9VNB5 1-486 partner): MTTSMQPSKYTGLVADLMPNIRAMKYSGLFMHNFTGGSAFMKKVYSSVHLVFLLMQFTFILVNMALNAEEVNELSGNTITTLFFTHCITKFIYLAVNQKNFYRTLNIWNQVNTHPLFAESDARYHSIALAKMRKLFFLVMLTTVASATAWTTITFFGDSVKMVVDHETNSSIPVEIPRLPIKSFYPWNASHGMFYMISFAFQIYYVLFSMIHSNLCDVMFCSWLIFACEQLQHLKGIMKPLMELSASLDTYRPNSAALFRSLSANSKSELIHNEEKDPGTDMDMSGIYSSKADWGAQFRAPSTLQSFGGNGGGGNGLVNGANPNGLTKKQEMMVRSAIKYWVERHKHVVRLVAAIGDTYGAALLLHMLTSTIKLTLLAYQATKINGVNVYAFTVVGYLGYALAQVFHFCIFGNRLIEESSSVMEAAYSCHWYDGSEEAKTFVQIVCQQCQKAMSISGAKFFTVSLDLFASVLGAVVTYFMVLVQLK
- experimental.details: Calcium ion fluorescence (GCaMP6) assay, OR71a stable HEK293 cell line
- Type: cell-based
- assay.context: OR71a cell line; cc. 10 µM; VUAA1-normalized response, mean of biological replicates
Give bare numbers.

Solved cases below.
(Q) Sample `CCCCCCCCCCCCCC` — what was its Average response?
(A) 0.0215

(Q) Same read-out for CC1=CCC2CC1C2(C)C (stereo not drawn) ?
(A) 0.00

(Q) Same read-out for `CC/C=C\CCO` ?
(A) 0.0174

(Q) Same read-out for `C=CCc1ccc(O)c(OC)c1` ?
(A) 0.0465

(Q) Same read-out for `COc1cccc(OC)c1` ?
(A) 0.04

Report Average response for each item below.
1. CCCCCC(=O)CC
2. CCCC(O)CC (stereo not drawn)
3. CC1=CCC[C@@]2(C)[C@@H]3CC[C@]12CC3(C)C [(−)-α-neoclovene]
4. CCc1ccccc1
5. CC1=CC[C@@H](C(C)(C)O)CC1

(A)
1: 0.00; 2: 0.06; 3: 0.00; 4: 0.0127; 5: 0.00

Report Average response for each item below.
1. CCCCCC(=O)OCC [ethyl hexanoate]
2. C=CC(O)C/C=C\CC (stereo not drawn)
3. C=C(C)[C@H]1CC=C(C)CC1 [limonene]
4. CC1=CCC23CC1C(C)(C)C2CCC3C (stereo not drawn)

(A)
[0.0153, 0.0228, 0.00, 0.00]

* * *

Can you tell me activation at 100 µM for the items I'm about to list?
- assayed.target: Drosophila OR98a (Drosophila melanogaster, UniProt Q9VAZ3)
- Construct: expressed in transfected cells
- Sequence (Q9VAZ3 1-397): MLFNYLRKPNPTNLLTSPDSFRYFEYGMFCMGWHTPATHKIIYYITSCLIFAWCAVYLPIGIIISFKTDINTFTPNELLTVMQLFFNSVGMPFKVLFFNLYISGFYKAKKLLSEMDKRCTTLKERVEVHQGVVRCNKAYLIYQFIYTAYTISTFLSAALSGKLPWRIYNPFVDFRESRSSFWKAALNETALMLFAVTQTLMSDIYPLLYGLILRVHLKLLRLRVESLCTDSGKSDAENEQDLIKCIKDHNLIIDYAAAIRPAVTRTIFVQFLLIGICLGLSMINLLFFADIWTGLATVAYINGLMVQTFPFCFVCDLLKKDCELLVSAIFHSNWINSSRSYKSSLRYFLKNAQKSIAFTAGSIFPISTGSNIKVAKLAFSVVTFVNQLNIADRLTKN
- Sequence (Q9VNB5 1-486 partner): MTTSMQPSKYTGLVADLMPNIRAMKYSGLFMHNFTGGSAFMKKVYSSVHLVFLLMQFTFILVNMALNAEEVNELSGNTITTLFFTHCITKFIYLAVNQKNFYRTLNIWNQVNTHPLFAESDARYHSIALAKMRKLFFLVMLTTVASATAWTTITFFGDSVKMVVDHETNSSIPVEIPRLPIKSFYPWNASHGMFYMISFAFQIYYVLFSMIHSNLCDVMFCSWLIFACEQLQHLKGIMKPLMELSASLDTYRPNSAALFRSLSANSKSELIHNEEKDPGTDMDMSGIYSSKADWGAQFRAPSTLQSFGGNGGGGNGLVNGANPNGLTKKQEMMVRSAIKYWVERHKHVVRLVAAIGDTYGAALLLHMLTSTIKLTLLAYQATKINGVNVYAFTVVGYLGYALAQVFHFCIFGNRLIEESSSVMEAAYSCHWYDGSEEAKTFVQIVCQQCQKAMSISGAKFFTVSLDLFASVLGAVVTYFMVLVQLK
- experimental.details: Calcium ion fluorescence (GCaMP6) assay, OR98a stable HEK293 cell line;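 note: ligand concentrations in µM final VOC concentration in well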
- Format: cell-based
- assay.context: HEK293, read-out: Average response

Solved cases below.
(Q) Sample CCCCCCCCC(CO)CCCCCC (stereo not drawn) — what was its activation at 100 µM?
(A) 2%

(Q) Same read-out for CCCCCC(=O)OCC [ethyl hexanoate] ?
(A) 3.29%

New cases:
(Q) Sample CCCCOC(C)=O [butyl acetate] — what was its activation at 100 µM?
(A) 4.29%

* * *

Can you tell me activation at 10 µM for the items I'm about to list?
- assayed.target: Drosophila OR10a (Drosophila melanogaster)
- Construct: expressed in transfected cells
- Sequence (Q9VYZ1 whole entry, one chain of several): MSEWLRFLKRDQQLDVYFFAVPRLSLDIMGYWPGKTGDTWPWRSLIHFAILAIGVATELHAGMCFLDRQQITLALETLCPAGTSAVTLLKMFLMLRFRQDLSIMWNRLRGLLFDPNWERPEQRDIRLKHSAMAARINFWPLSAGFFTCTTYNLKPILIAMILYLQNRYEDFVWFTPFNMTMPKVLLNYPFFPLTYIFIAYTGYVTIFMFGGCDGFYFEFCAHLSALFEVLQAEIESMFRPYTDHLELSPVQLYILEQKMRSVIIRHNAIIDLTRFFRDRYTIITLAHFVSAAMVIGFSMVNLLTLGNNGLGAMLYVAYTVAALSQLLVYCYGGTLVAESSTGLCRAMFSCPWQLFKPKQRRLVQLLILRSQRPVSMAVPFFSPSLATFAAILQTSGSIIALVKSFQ
- experimental.details: Calcium ion fluorescence (GCaMP6) assay, OR10a stable HEK293 cell line
- Assay type: cell-based
- assay.context: HEK293, read-out: OR10a Average response (VUAA1-normalized), 10 μM VOC; 50 μM VUAA1 = 1; responses not exceeding 0.05 considered 0
// return the numeric value with its unit appended

(Q) Sample `C=Cc1ccccc1` — what was its activation at 10 µM?
(A) 0%

(Q) Same read-out for `CC1=CC[C@@H](C(C)(C)O)CC1` ?
(A) 2.71%

(Q) Same read-out for CCOC(=O)c1ccccc1 [ethyl benzoate] ?
(A) 45%

(Q) Same read-out for CC(=O)OCC(C)C [isobutyl acetate] ?
(A) 5%

(Q) Same read-out for CC1=CCC2CC1C2(C)C (centres unmarked) ?
(A) 0%

Report activation at 10 µM for each item below.
1. Cc1ccc(C)cc1
2. Cc1ccccc1
3. Cc1ccc(C(C)C)cc1

(A)
1: 0%; 2: 0%; 3: 0%

* * *

- assayed.target: Drosophila OR47a (Drosophila melanogaster)
- Construct: expressed in transfected cells
- Sequence (P81921 whole entry, one chain of several): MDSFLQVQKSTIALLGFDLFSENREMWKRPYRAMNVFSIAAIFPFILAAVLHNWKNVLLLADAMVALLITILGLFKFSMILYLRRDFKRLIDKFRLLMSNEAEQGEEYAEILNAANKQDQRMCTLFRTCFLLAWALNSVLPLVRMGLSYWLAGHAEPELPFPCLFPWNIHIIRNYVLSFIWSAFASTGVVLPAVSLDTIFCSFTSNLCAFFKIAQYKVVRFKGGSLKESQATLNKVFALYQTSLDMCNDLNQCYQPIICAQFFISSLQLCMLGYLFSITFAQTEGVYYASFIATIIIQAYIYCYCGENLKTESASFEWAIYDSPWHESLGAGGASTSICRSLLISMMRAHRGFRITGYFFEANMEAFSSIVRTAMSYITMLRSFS
- experimental.details: Calcium ion fluorescence (GCaMP6) assay, OR47a stable HEK293 cell line
- Type: cell-based
- assay.context: HEK293, read-out: OR47a Average response (VUAA1-normalized)
test.readout: activation at 10 µM (%)
Give bare numbers, in %.

Report activation at 10 µM for each item below.
1. CC(=O)OCC(C)C [isobutyl acetate]
2. CCCCCC(=O)CC [3-octanone]
3. COC(=O)c1ccccc1O [methyl salicylate]
4. CCCC(O)CC (stereo not drawn) [3-hexanol]
5. CC(=O)OCCC(C)C [isopentyl acetate]
6. CCCCCC(=O)OCC [ethyl hexanoate]

(A)
1: 15; 2: 16; 3: 1; 4: 0; 5: 12; 6: 26
